- protocol.description: HBEC Part A pharmacokinetics, healthy subjects
- Type: in vivo, human
- condition.details: human, in vivo, oral, Day 14, LY 150 mg (N = 9), read-out: tmax, median
- Experimental: In this randomized, double-blind, placebo-controlled, multiple ascending dose, parallel-group study, HBEC, healthy subjects (Part A) and participants with PD (Part B) received once-daily doses of LY3154207 (15, 30, 75, or 150 mg in Part A and up to 75 mg in Part B) or placebo for 14 days, as illustrated in FIG. 3. […]
quantity.measured: Tmax (h)
Write the value in h as a bare number.

Query: I'd like to know its Tmax. The compound in question is C[C@H]1c2cccc(CCC(C)(C)O)c2C[C@H](CO)N1C(=O)Cc1c(Cl)cccc1Cl
Result: 3
